Origin of values: paper PMC8225959

Experiment: in vivo
Conditions: male, NodCB17 SCID, mouse, lung, iv, 0.061 nmol, total radioactivity
Observable: tissue uptake at 0.25 h (%ID/g)

# Compound, Reported
data = [
    ("CC(C)C[C@H](NC(=O)C[C@H](O)[C@H](CC(C)C)NC(=O)[C@H](Cc1c[nH]cn1)NC(=O)CNC(=O)[C@@H](NC(=O)[C@H](C)NC(=O)[C@H](Cc1c[nH]c2ccccc12)NC(=O)[C@H](CCC(N)=O)NC(=O)[C@@H](Cc1ccccc1)NC(=O)CCOCCOCCOCCOCCNC(=O)OC1CCCC2=CNN=C(c3ccc(CNC(=O)CN4CCN(CC(=O)O)CCN(CC(=O)O)CCN(CC(=O)O)CC4)cc3)C2CC1)C(C)C)C(N)=O (stereo partly shown) [[90Y]Y-DOTA-Tz-TCO-PEG4-AR, metal not drawn]", 7.48),
]
